Sourced from patent US20260266833A1

- TESTED_SYSTEM: T1, H3K27me3 peptide (Kme3 (trimethyl-lysine) at the 10th residue (KQLATKAARKme3SAPATGGVK); N-terminus biotin + aminohexanoic acid linker, or FITC at the N-terminus for fluorescence polarization)
- T1 construct: Synthetic peptide (GenScript); One entry is used for the biotinylated and the FITC-labelled form
- T1 peptide: KQLATKAARKSAPATGGVK
- TEST_DETAILS: ITC, peptide titrated into the chromodomain, 25 C
REPORTED_PROPERTY: pKd
Give bare numbers, as −log10 of the molar value.

Problem: Please give measured pKd of the following entry: Cbx7.V1 chromodomain (tags removed) (designed binder, ITC and FP: His6 and Flag tags removed with TEV protease) SAIGDDIFAVESIRKKRVRKGKVEYLVKWEGWPLEYSTWEPEEHILDPRLVMAYEEKEERDRASGYRKRGPK
Result: 5.11
